// reported protein stability index for each item listed
B1: EDARADD (parent)
chain: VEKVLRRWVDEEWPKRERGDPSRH

# Variants of: B1
# ASSAY OVERVIEW: protein stability index of a GFP-peptide fusion (GPS, HEK-293T) (PSI 1-6); higher = more stable;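 also: lentivirally expressed fusions sorted by FACS into six bins by GFP to DsRed ratio, PSI derived from sequencing read proportions per bin multiplied by bin number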
# MEASUREMENT SETUP: c terminus: a fixed tail appended
Enter a number only.

Reference set, count: 5
MUTATION KEY: R7Y
MEASURED VALUE: 2.7

MUTATION KEY: E2K
MEASURED VALUE: 1.24

MUTATION KEY: S22Q
MEASURED VALUE: 2.96

MUTATION KEY: V4Q
MEASURED VALUE: 2.76

MUTATION KEY: R7S
MEASURED VALUE: 3.46

May I ask what protein stability index has been recorded for V1W ?
2.28
